- Tested on: SR
- test: NCI tumour cell line growth inhibition, 48 h
Active and inactive are the calls of the source. No stated cut-off is given here; in the data, active = GI50 up to about 1.1 µM and inactive = higher.
measured property: GI50

Recorded GI50 (molecule Cn1c(=O)n(C2(C)CSC2)c2ccccc21 ): > 100 µM (inactive)

The reported GI50 of the molecule Cc1ccc(NC(=O)/C(=N/NC(=O)C[N+](C)(C)C)c2nc3ccccc3nc2O)cc1 was > 100 µM (inactive)

So for CS(=O)(=O)c1ccc(-c2cc(-c3ccc(S(C)(=O)=O)cc3)[n+](-c3cc(-c4ccccc4)c([O-])c(-c4ccccc4)c3)c(-c3ccc(S(C)(=O)=O)cc3)c2)cc1 , the logged GI50 turned out to be > 100 µM (inactive)

Reported GI50 ( COC1CC(C)([N+](=O)[O-])C(O)C(C)O1 (stereo unspecified) ) = > 100 µM (inactive)

Documented GI50 of N#Cc1c(N)nc2c(c1-c1ccc(Br)cc1)CSc1ccccc1-2 : 68.4 µM (inactive)

# GI50 of Nc1nc(N)c2ncn(Cc3ccccc3CCl)c2n1 = 8.51 µM (inactive)

The reported GI50 of the molecule CN(C)CCNC(=O)Cc1ccccc1Nc1c(Cl)cccc1Cl was 15.2 µM (inactive)

Given item N=C(N)N/N=C\c1ccc(C2CCNCC2)cc1 , the value recorded as its GI50 is > 100 µM (inactive)

Form: molecule = CC(=O)Nc1ccc(/C=C/C(=O)c2sc(-c3nc(C)c(C(=O)/C=C/c4ccc(NC(C)=O)cc4)s3)nc2C)cc1 ; GI50 = > 100 µM (inactive)

In plain terms, O=C(O)c1cc2ccccc2oc1=O has a documented GI50 of > 100 µM (inactive)

molecule O=C(CC(C(=O)c1ccsc1)c1ccc2c(c1)OCO2)c1ccccc1 (stereo unspecified) , GI50 observed: > 100 µM (inactive)

GI50 reading for COC(=O)C(=O)C(C(C)=O)C(=O)C(=O)Nc1ccc(C)cc1C (stereo unspecified) : > 100 µM (inactive)

Notebook: c1cc2nnc1SCCCSc1ccc(nn1)SCCCS2 , GI50 read as > 26 µM (inactive)

What the record says about COc1cc(Br)cc2cc(C3=CSC4=NCCN34)c(=O)oc12 : GI50 is 21.9 µM (inactive)

Kindly note the recorded GI50 for C[C@H]1[C@H](C)CC[C@]2(C(=O)OC3OC(CO)C(O)C(O)C3O)CC[C@]3(C)C(=CC[C@@H]4[C@@]5(C)C[C@@H](O)[C@@H]6OC(=O)c7cc(O)c(O)c(O)c7-c7c(cc(O)c(O)c7O)C(=O)OC[C@@]6(CO)[C@@H]5CC[C@]43C)[C@H]12 (stereo partly specified) , which is 38.1 µM (inactive)

# GI50 (molecule: Cc1cc2c(cc1C)C(=O)C1(C2)Cc2cc3c(cc2C1=O)CCC3 (stereo unspecified) ) is > 100 µM (inactive)

Looking up CO[C@@]12[C@H](COC(N)=O)C3=C(C(=O)C(C)=C(N)C3=O)N1C[C@H]1[C@@H]2N1C (stereo partly specified) , I found its GI50 recorded as 0.409 µM (active)

// GI50 lookup, molecule = CC(C)(CO)CNc1nc(N)nc(Cl)c1/C=N/O , result: 24.1 µM (inactive)

====

- System: HOP-62
- test: NCI tumour cell line growth inhibition, 48 h
Active and inactive are the calls of the source. No stated cut-off is given here; in the data, active = GI50 up to about 1.1 µM and inactive = higher.
Hi! Could you answer with just one of these? active, inactive

Worked examples follow.
# compound, answer label
records = [
    ("Brc1ccc(-c2cc3c(cc2C2SCCS2)OCO3)cc1", "inactive"),
    ("CC(c1ccc2c(c1)CCC1C2CC2OC23CC=CC(=O)[C@]13C)C1C[C@]2(C)O[C@]2(C)[C@H](O)O1 (stereo not given in full)", "active"),
    ("CCN(CC)CCCNC(=O)c1cc(-c2nccn2C)nc2ccccc12", "inactive"),
    ("C=C1CC(OC)(C(O)C(=O)N[C@H]2OCO[C@H]3C2O[C@H](C[C@@H](COC)OC)C(C)(C)C3OC)O[C@H](C)[C@@H]1C (stereo not given in full)", "active"),
    ("COc1cc(Br)cc2cc(C3=CSC4=NCCN34)c(=O)oc12", "inactive"),
    ("CCOC(=O)c1cccc(NC(=O)CCl)c1", "inactive"),
    ("CCCCCCCCCCCCCCCC(=O)OCCOCCOCCOCCOCCOC(=O)CCCCCCCCCCCCCCC", "inactive"),
    ("CNC(=S)N/N=C(\\C)c1cc(OC)ccc1O", "inactive"),
    ("CC(=O)C(I(OS(=O)(=O)c1ccc(C)cc1)c1ccccc1)=P(c1ccccc1)(c1ccccc1)c1ccccc1", "inactive"),
    ("Cc1cc(=O)oc2cc(OCCCOc3ccc4c(C)cc(=O)oc4c3)ccc12", "inactive"),
]

**Query** Dear colleague, could you share the recorded outcome for O=C(N/N=C(COc1ccccc1Cl)\N=C\c1ccncc1)c1ccncc1 when you have a moment?
**Result** inactive

**Query** Entry CN(C)/C(F)=P\C(F)(F)F (stereo not given) : call = ?
**Result** inactive

**Query** Tell me the recorded outcome of this test for Cc1cn(CCOCCOC(=O)NC(CCCNC(=N)N)C(=O)O)c(=O)[nH]c1=O (stereo not given) .
**Result** inactive

**Query** Hello, I am checking results. What call was entered for O=C(CC(C(=O)c1ccsc1)c1ccc2c(c1)OCO2)c1ccccc1 (stereo not given) ?
**Result** inactive

**Query** // param item: CCN(CC)CCCNc1ccc([N+](=O)[O-])c2nc3ccc(OC)cc3c(N)c12 ; yields the recorded call
**Result** inactive

**Query** Identify the outcome logged in this assay for the compound shown: N=C(N)N/N=C\c1ccc(C2CCNCC2)cc1
**Result** inactive

**Query** Which outcome did this test record for the compound CCOC(=O)N1C2C=C(C)C(ON2C(=O)c2ccccc2)C2C(C)C(=O)N21 (stereo not given) ?
**Result** inactive

**Query** What call does the record list for Cc1ccc(O)c(C2=CC(c3cccc(Cl)c3)SC(=N)N2)c1 (stereo not given) ?
**Result** inactive

**Query** Assay result, entry COc1ccc(C2CC(c3sc(Nc4ccc(C)cc4)nc3C)=NN2)cc1 (stereo not given) — outcome?
**Result** inactive

**Query** Could you check what this test reported for CC1=C(C)C(=O)O[C@@H]([C@](C)(O)[C@]2(O)CC[C@@]3(O)[C@@H]4C[C@H]5O[C@]56[C@@H](O)C=CC(=O)[C@]6(C)[C@H]4CC[C@]23C)C1 ?
**Result** active

====

- Test system: K562
- test: NCI tumour cell line growth inhibition, 48 h
Calls of active or inactive are those of the source. Cut-off read from the data, not from the text of the source: active = GI50 up to about 1.1 µM and inactive = higher.
One label from this list, please: active, inactive

# count of solved cases: 4
# compound, answer label
data = [
    ("Cc1ccc(NC(=O)CCC(=O)C(C#N)c2ccc(Cl)cc2)cc1C (stereo not given)", "inactive"),
    ("Cc1cc(NCc2ccccc2)c2ccccc2[n+]1CCCCCCCCCC[n+]1c(C)cc(NCc2ccccc2)c2ccccc21.[O-][Cl+3]([O-])([O-])[O-].[O-][Cl+3]([O-])([O-])[O-]", "active"),
    ("COc1ccc(NC(=O)CC(=O)NNC(Sc2ccccc2)c2cc(/N=N/c3ccc(Br)cc3)ccc2O)cc1 (stereo not given)", "inactive"),
    ("O=c1[nH]cc(C(F)(C(F)(F)F)C(F)(F)F)c(=O)[nH]1", "inactive"),
]

# evaluate next
**Query** Answer briefly: the call reported for O=C(Nc1ccccc1)n1[nH]c(=O)n(-c2ccccc2)c1=O in this assay.
**Result** inactive

====

- System: RPMI-8226
- test: NCI tumour cell line growth inhibition, 48 h
The source made the active and inactive calls. Rule as the data show it: active = GI50 up to about 1.1 µM and inactive = higher.
Each entry below lists one item and its recorded GI50 value.

# molecule, GI50
rows = [
    ("Cc1cc(C)c2c(=N)c3ccccc3n(CCCCCCO)c2n1", "1.38 µM (inactive)"),
    ("O=C(O)c1cc2ccccc2oc1=O [COUMARIN-3-CARBOXYLIC ACID]", "> 100 µM (inactive)"),
    ("CC(C)(C)[Si](OC1CCOC1=O)(c1ccccc1)c1ccccc1 (stereo not given)", "29 µM (inactive)"),
    ("Cc1cc(=O)oc2cc(OCCCOc3ccc4c(C)cc(=O)oc4c3)ccc12", "> 100 µM (inactive)"),
    ("COCOC1/C=C/CCCC#C[C@H](C)C(=O)CC1 (stereo not given in full)", "2.21 µM (inactive)"),
    ("CCOC(=O)c1c(O)nc2cccc3c2c1-c1cccnc1S3", "17.5 µM (inactive)"),
]

Measured GI50, CN1CCc2c(sc3ncn(Nc4ccc(Cl)cc4)c(=N)c23)C1 : > 100 µM (inactive)

Lab note: measured GI50 of S=C1CNC(=S)CN1 was > 100 µM (inactive)

Form field GI50, entry CC(C)CC(NC(=O)OCc1ccccc1)C(=O)NCCCCC(N)C(=O)NC(CCCCNC(=O)C(CC(C)C)NC(=O)OCc1ccccc1)C(=O)NC(CCCCNC(=O)C(CC(C)C)NC(=O)OCc1ccccc1)C(=O)NC(CCCCNC(=O)C(CC(C)C)NC(=O)OCc1ccccc1)C(=O)NC(CCCCNC(=O)C(CC(C)C)NC(=O)OCc1ccccc1)C(=O)NC(CCCCNC(=O)C(CC(C)C)NC(=O)OCc1ccccc1)C(=O)O (stereo not given) : > 100 µM (inactive)

So for CC1CC(C)C(C(O)CC2CC(=O)N(c3ccccc3)C(=O)C2)C(O)C1 (stereo not given) , the logged GI50 turned out to be > 100 µM (inactive)

Reported GI50 of Cc1c(-c2nnc(-c3ccccc3)o2)c(=O)n(-c2ccccc2)n1C : > 100 µM (inactive)

Record summary for CCCCc1ccc(Nc2nc(Cl)c3ccn(C4CC(Oc5ccc(C)cc5)C(COc5ccc(C)cc5)O4)c3n2)cc1 (stereo not given) : reported GI50 = > 46.5 µM (inactive)

Per the record, COc1ccc(C2CC(c3sc(Nc4ccc(C)cc4)nc3C)=NN2)cc1 (stereo not given) has GI50 of 12.4 µM (inactive)

Field GI50 (entry C=CC1(O)CCCC=C1COCc1ccccc1 (stereo not given) ) reads 23.8 µM (inactive)

Field GI50 (entry COc1cc(C[C@H]2c3cc(OC)c(OC)cc3CCN2C)c(Oc2cc3c(cc2OC)-c2c(OC)c(OC)cc4c2[C@H](C3)N(C)CC4)cc1OC [THALICARPINE] ) reads 8.04 µM (inactive)

The reported GI50 of the molecule CN(C)CCNC(=O)Cc1ccccc1Nc1c(Cl)cccc1Cl was 16.6 µM (inactive)

The recorded GI50 for entry N[C@@H](CCC(=O)NCP(=O)(O)O)C(=O)O equals > 100 µM (inactive)

Per the record, O=c1c2cc(Cl)ccc2[nH]c2cc(O)cc(O)c12 has GI50 of > 10 µM (inactive)

Note to self: GI50 recorded for Cc1cc2c(cc1C)C(=O)C1(C2)Cc2cc3c(cc2C1=O)CCC3 (stereo not given) was > 100 µM (inactive)

Note to self: GI50 recorded for O=c1ccn([C@H]2CSC[C@@H](CO)C2)c(=O)[nH]1 was > 100 µM (inactive)

Hey, just so you know, these numbers are from ChEMBL document CHEMBL1201862.
